# System: P388 leukemia ip, CD2F1 mice, survival T/C
# assay_text: NCI In Vivo Anticancer Drug Screen. Data for tumor model P388 Leukemia (intraperitoneal) in CD2F1 (CDF1) mice
# measurement_context: endpoint: median survival time; dose: 100.0 mg/kg/injection; schedule: Q01DX001 (ip); vehicle: saline with Tween-80; higher = longer survival
Toxic doses and inconclusive results are not listed.
Entries and their T/C values follow.

C(=N\Nc1ccccn1)/c1ccccn1.C(=N\Nc1ccccn1)/c1ccccn1.[Cl-].[Fe+3]
100 % of control

Query (molecule): [O-]c1on[n+](-c2ccccc2-n2cccn2)c1-c1ccccc1 ; field requested: T/C
90 % of control

Look up T/C: CCOC(=O)c1c(SCC)c(C=C(C(C)=O)C(C)=O)c2ccccn12
99 % of control

Which value of T/C has been reported for Cn1nncc1NS(=O)(=O)c1ccc([N+](=O)[O-])cc1 in the records?
107 % of control

Data request, read-out T/C, for CC(=O)Oc1ccc2[nH]c(C)cc2c1
100 % of control
